test system: HCT-116; test: NCI-60 single-dose screen; assay type: cell-based; conditions: Homo sapiens; HCT-116, 10^–5 M; read-out: GI (%)
quantity.measured: inhibition at 10 µM (%)
Kindly provide the numeric value in % only, without the unit symbol.

These solved cases illustrate the format of a correct answer.
-- ask Suppose we examine the compound O=C1C(Nc2ccc(I)cc2)=CC(c2ccc(O)cc2)N1c1ccc(I)cc1 (centres unmarked) ; what inhibition at 10 µM value has been reported?
-- reply 61

-- ask Try O=C1C(Nc2ccc(I)cc2)=CC(c2ccc(F)cc2)N1c1ccc(I)cc1 (centres unmarked) next.
-- reply 21

Further cases:
-- ask Suppose we examine the compound O=C1C(Nc2ccc(I)cc2)=CC(c2cc(C(F)(F)F)cc(C(F)(F)F)c2)N1c1ccc(I)cc1 (centres unmarked) ; what inhibition at 10 µM value has been reported?
-- reply 43

-- ask Try COc1ccc(C2C=C(Nc3ccc(I)cc3)C(=O)N2c2ccc(I)cc2)cc1OC (centres unmarked) next.
-- reply 0

-- ask Try N#Cc1ccc(C2C=C(Nc3ccc(I)cc3)C(=O)N2c2ccc(I)cc2)cc1 (centres unmarked) next.
-- reply 48

###

test system: SF-295; test: NCI-60 single-dose screen; format: cell-based, human; settings: SF-295, 10^–5 M
Tag: criterion met if measured GI (%) is not below 50%, criterion not met if it is.

Use these answered entries as a reference point.
-- ask Is GI (%) at least 50%? Consider O=C1C(Nc2ccc(I)cc2)=CC(c2ccc3c(c2)OCO3)N1c1ccc(I)cc1 (stereo not shown)
-- reply criterion not met

-- ask Try O=C1C(Nc2ccc(I)cc2)=CC(c2ccco2)N1c1ccc(I)cc1 (stereo not shown) next.
-- reply criterion met

-- ask Try O=C1C(Nc2ccc(I)cc2)=CC(c2ccc(O)c(O)c2)N1c1ccc(I)cc1 (stereo not shown) next.
-- reply criterion met

Further cases:
-- ask Is GI (%) at least 50%? Consider COc1ccc(C2C=C(Nc3ccc(I)cc3)C(=O)N2c2ccc(I)cc2)cc1OC (stereo not shown)
-- reply criterion not met

-- ask Try COc1cc(OC)c(C2C=C(Nc3ccc(I)cc3)C(=O)N2c2ccc(I)cc2)cc1OC (stereo not shown) next.
-- reply criterion not met

-- ask Try COc1ccccc1C1C=C(Nc2ccc(I)cc2)C(=O)N1c1ccc(I)cc1 (stereo not shown) next.
-- reply criterion not met

-- ask Try O=C1C(Nc2ccc(I)cc2)=CC(c2ccc(O)cc2)N1c1ccc(I)cc1 (stereo not shown) next.
-- reply criterion not met

###

tested on: M14; test: NCI-60 single-dose screen; format: cell-based; conditions: Homo sapiens; M14, 10^–5 M; read-out: GI (%)
quantity.measured: inhibition at 10 µM (%)
Kindly provide the numeric value in % only, without the unit symbol.

-- ask Suppose we examine the compound COc1cc(OC)c(C2C=C(Nc3ccc(I)cc3)C(=O)N2c2ccc(I)cc2)cc1OC (stereo not drawn) ; what inhibition at 10 µM value has been reported?
-- reply 0

-- ask Try COc1ccccc1C1C=C(Nc2ccc(I)cc2)C(=O)N1c1ccc(I)cc1 (stereo not drawn) next.
-- reply 10

-- ask Try O=C1C(Nc2ccc(I)cc2)=CC(c2ccc(O)cc2)N1c1ccc(I)cc1 (stereo not drawn) next.
-- reply 52

-- ask Try O=C1C(Nc2ccc(I)cc2)=CC(c2ccco2)N1c1ccc(I)cc1 (stereo not drawn) next.
-- reply 4

Further cases:
-- ask Suppose we examine the compound O=C1C(Nc2ccc(I)cc2)=CC(c2ccc(C(F)(F)F)cc2)N1c1ccc(I)cc1 (stereo not drawn) ; what inhibition at 10 µM value has been reported?
-- reply 64

-- ask Try N#Cc1ccc(C2C=C(Nc3ccc(I)cc3)C(=O)N2c2ccc(I)cc2)cc1 (stereo not drawn) next.
-- reply 63

-- ask Try O=C1C(Nc2ccc(I)cc2)=CC(c2ccc(F)cc2)N1c1ccc(I)cc1 (stereo not drawn) next.
-- reply 4

-- ask Try O=C1C(Nc2ccc(I)cc2)=CC(c2ccc(Cl)cc2)N1c1ccc(I)cc1 (stereo not drawn) next.
-- reply 0

-- ask Try O=C1C(Nc2ccc(I)cc2)=CC(c2ccccc2)N1c1ccc(I)cc1 (stereo not drawn) next.
-- reply 0

###

inhibition at 10 µM values by entry
tested on: CCRF-CEM; assay: NCI-60 single-dose screen; assay type: cell-based; conditions: Homo sapiens, 10^–5 M, read-out: GI (%)
Kindly provide the numeric value in % only, without the unit symbol.

-- ask I'm curious: which inhibition at 10 µM was measured for O=C1C(Nc2ccc(I)cc2)=CC(c2ccc(Cl)cc2)N1c1ccc(I)cc1 (centres unmarked) tested on CCRF-CEM?
-- reply 15

-- ask Try O=C1C(Nc2ccc(I)cc2)=CC(c2ccco2)N1c1ccc(I)cc1 (centres unmarked) next.
-- reply 59

Further cases:
-- ask I'm curious: which inhibition at 10 µM was measured for O=C1C(Nc2ccc(I)cc2)=CC(c2cc(C(F)(F)F)cc(C(F)(F)F)c2)N1c1ccc(I)cc1 (centres unmarked) tested on CCRF-CEM?
-- reply 100

-- ask Try O=C1C(Nc2ccc(I)cc2)=CC(c2ccc(O)c(O)c2)N1c1ccc(I)cc1 (centres unmarked) next.
-- reply 100

-- ask Try O=C1C(Nc2ccc(I)cc2)=CC(c2ccc(F)cc2)N1c1ccc(I)cc1 (centres unmarked) next.
-- reply 74

-- ask Try O=C1C(Nc2ccc(I)cc2)=CC(c2ccc(O)cc2)N1c1ccc(I)cc1 (centres unmarked) next.
-- reply 94

-- ask Try O=C1C(Nc2ccc(I)cc2)=CC(c2ccc(Br)cc2)N1c1ccc(I)cc1 (centres unmarked) next.
-- reply 17

###

system: 786-0; test: NCI-60 single-dose screen; type: cell-based; details: Homo sapiens; 786-0, 10^–5 M; read-out: GI (%)
quantity.measured: inhibition at 10 µM (%)
Kindly provide the numeric value in % only, without the unit symbol.

-- ask Suppose we examine the molecule O=C1C(Nc2ccc(I)cc2)=CC(c2ccccc2)N1c1ccc(I)cc1 (stereo not drawn) ; what inhibition at 10 µM value has been reported?
-- reply 17

-- ask Try O=C1C(Nc2ccc(I)cc2)=CC(c2ccc(O)c(O)c2)N1c1ccc(I)cc1 (stereo not drawn) next.
-- reply 52

-- ask Try O=C1C(Nc2ccc(I)cc2)=CC(c2ccco2)N1c1ccc(I)cc1 (stereo not drawn) next.
-- reply 36

-- ask Try O=C1C(Nc2ccc(I)cc2)=CC(c2ccc(Cl)cc2)N1c1ccc(I)cc1 (stereo not drawn) next.
-- reply 18

-- ask Try O=C1C(Nc2ccc(I)cc2)=CC(c2ccc3c(c2)OCO3)N1c1ccc(I)cc1 (stereo not drawn) next.
-- reply 9

Further cases:
-- ask Suppose we examine the molecule O=C1C(Nc2ccc(I)cc2)=CC(c2ccc(C(F)(F)F)cc2)N1c1ccc(I)cc1 (stereo not drawn) ; what inhibition at 10 µM value has been reported?
-- reply 76

-- ask Try O=C1C(Nc2ccc(I)cc2)=CC(c2cc(C(F)(F)F)cc(C(F)(F)F)c2)N1c1ccc(I)cc1 (stereo not drawn) next.
-- reply 29

-- ask Try O=C1C(Nc2ccc(I)cc2)=CC(c2ccc(F)cc2)N1c1ccc(I)cc1 (stereo not drawn) next.
-- reply 27

-- ask Try COc1cc(OC)c(C2C=C(Nc3ccc(I)cc3)C(=O)N2c2ccc(I)cc2)cc1OC (stereo not drawn) next.
-- reply 3

###

system: SF-539; assay: NCI-60 single-dose screen; type: cell-based; conditions: Homo sapiens; SF-539, 10^–5 M; read-out: GI (%)
inhibition at 10 µM values by entry

-- ask I'm curious: which inhibition at 10 µM was measured for O=C1C(Nc2ccc(I)cc2)=CC(c2ccc(O)cc2)N1c1ccc(I)cc1 (stereo not drawn) tested on SF-539?
-- reply 69%

-- ask Try O=C1C(Nc2ccc(I)cc2)=CC(c2ccc(Cl)cc2)N1c1ccc(I)cc1 (stereo not drawn) next.
-- reply 11%

Here is the next item to consider.
-- ask I'm curious: which inhibition at 10 µM was measured for O=C1C(Nc2ccc(I)cc2)=CC(c2ccccc2)N1c1ccc(I)cc1 (stereo not drawn) tested on SF-539?
-- reply 12%

###

inhibition at 10 µM values by entry
test system: SNB-75; experiment: NCI-60 single-dose screen; type: cell-based; details: Homo sapiens; SNB-75, 10^–5 M; read-out: GI (%)
Kindly provide the numeric value in % only, without the unit symbol.

These solved cases illustrate the format of a correct answer.
-- ask Suppose we examine the compound COc1ccccc1C1C=C(Nc2ccc(I)cc2)C(=O)N1c1ccc(I)cc1 (stereo not shown) [3i] ; what inhibition at 10 µM value has been reported?
-- reply 37

-- ask Try O=C1C(Nc2ccc(I)cc2)=CC(c2ccccc2)N1c1ccc(I)cc1 (stereo not shown) [3a] next.
-- reply 15

-- ask Try O=C1C(Nc2ccc(I)cc2)=CC(c2ccc(Br)cc2)N1c1ccc(I)cc1 (stereo not shown) [3d] next.
-- reply 3

-- ask Try O=C1C(Nc2ccc(I)cc2)=CC(c2ccc(C(F)(F)F)cc2)N1c1ccc(I)cc1 (stereo not shown) [3e] next.
-- reply 100

-- ask Try O=C1C(Nc2ccc(I)cc2)=CC(c2ccc(O)c(O)c2)N1c1ccc(I)cc1 (stereo not shown) [3h] next.
-- reply 86

-- ask Try COc1cc(OC)c(C2C=C(Nc3ccc(I)cc3)C(=O)N2c2ccc(I)cc2)cc1OC (stereo not shown) [3k] next.
-- reply 0

-- ask Try O=C1C(Nc2ccc(I)cc2)=CC(c2ccc(O)cc2)N1c1ccc(I)cc1 (stereo not shown) [3g] next.
-- reply 77

-- ask Try O=C1C(Nc2ccc(I)cc2)=CC(c2cc(C(F)(F)F)cc(C(F)(F)F)c2)N1c1ccc(I)cc1 (stereo not shown) [3f] next.
-- reply 100

-- ask Try O=C1C(Nc2ccc(I)cc2)=CC(c2ccc3c(c2)OCO3)N1c1ccc(I)cc1 (stereo not shown) [3n] next.
-- reply 20

-- ask Try N#Cc1ccc(C2C=C(Nc3ccc(I)cc3)C(=O)N2c2ccc(I)cc2)cc1 (stereo not shown) [3l] next.
-- reply 100

Further cases:
-- ask Suppose we examine the compound O=C1C(Nc2ccc(I)cc2)=CC(c2ccc(F)cc2)N1c1ccc(I)cc1 (stereo not shown) [3b] ; what inhibition at 10 µM value has been reported?
-- reply 100

-- ask Try O=C1C(Nc2ccc(I)cc2)=CC(c2ccc(Cl)cc2)N1c1ccc(I)cc1 (stereo not shown) [3c] next.
-- reply 12

-- ask Try O=C1C(Nc2ccc(I)cc2)=CC(c2ccco2)N1c1ccc(I)cc1 (stereo not shown) [3m] next.
-- reply 9

These measurements were taken from paper PMC12736255.
